Source: patent US20110158985A1

Molecular target: F protein of RSV (Long strain) (RSV (Long strain), UniProt P12568 26-574)
Sequence (P12568 26-574): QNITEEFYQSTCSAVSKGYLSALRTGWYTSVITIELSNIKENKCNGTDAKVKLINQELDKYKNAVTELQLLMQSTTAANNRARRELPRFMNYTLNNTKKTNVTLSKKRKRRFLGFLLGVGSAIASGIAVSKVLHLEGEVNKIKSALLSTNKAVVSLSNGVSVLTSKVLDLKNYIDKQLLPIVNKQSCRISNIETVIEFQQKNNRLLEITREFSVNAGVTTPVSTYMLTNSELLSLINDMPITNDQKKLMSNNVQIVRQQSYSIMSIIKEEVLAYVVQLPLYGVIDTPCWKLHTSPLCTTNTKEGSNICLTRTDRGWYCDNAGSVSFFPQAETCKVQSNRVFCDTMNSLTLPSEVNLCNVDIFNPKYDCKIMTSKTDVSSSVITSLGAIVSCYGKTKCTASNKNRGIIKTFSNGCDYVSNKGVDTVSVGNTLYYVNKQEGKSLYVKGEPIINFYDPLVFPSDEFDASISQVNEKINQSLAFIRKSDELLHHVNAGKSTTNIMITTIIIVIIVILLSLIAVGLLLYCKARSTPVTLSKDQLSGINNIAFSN
Assay: cell-based or functional assay
measurement_type: Mean IC50 (Curve) (µg/mL)

[
  {
    "binder": "A1e9 Fab (Fab, V domains shown, also called Ale9) VH: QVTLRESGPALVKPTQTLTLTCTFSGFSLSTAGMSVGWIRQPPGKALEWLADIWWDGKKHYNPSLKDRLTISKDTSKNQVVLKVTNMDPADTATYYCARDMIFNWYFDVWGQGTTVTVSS VL: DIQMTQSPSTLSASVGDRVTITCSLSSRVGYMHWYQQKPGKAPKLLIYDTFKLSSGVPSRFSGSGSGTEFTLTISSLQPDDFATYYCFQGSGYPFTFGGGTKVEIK",
    "numeric_result": 0.157
  },
  {
    "binder": "P12f2 Fab (Fab, V domains shown) VH: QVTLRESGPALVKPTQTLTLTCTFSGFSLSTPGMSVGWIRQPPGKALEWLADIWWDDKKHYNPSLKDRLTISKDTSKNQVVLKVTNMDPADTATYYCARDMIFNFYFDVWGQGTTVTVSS VL: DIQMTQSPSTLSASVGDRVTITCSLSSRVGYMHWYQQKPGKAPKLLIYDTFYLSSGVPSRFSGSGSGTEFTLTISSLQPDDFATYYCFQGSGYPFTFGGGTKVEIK",
    "numeric_result": 0.0407
  },
  {
    "binder": "A12a6 Fab (Fab, V domains shown) VH: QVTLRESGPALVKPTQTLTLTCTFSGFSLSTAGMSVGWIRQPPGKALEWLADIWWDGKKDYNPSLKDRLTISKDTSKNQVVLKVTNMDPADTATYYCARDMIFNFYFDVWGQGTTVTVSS VL: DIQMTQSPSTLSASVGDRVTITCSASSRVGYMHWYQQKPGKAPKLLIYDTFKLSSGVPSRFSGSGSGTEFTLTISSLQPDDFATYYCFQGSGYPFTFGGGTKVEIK",
    "numeric_result": 0.0287
  },
  {
    "binder": "A12a6 IgG (antibody, V domains shown) VH: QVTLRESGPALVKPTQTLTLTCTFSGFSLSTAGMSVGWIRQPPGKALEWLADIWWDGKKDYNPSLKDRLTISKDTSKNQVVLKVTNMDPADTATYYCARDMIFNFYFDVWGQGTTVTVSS VL: DIQMTQSPSTLSASVGDRVTITCSASSRVGYMHWYQQKPGKAPKLLIYDTFKLSSGVPSRFSGSGSGTEFTLTISSLQPDDFATYYCFQGSGYPFTFGGGTKVEIKR",
    "numeric_result": 0.0357
  },
  {
    "binder": "A17d4(1) IgG (antibody, V domains shown) VH: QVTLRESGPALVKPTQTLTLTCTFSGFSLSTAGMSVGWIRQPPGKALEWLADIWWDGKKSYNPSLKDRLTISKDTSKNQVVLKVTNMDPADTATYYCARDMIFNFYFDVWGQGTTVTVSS VL: DIQMTQSPSTLSASVGDRVTITCLPSSRVGYMHWYQQKPGKAPKLLIYDTMYQSSGVPSRFSGSGSGTEFTLTISSLQPDDFATYYCFQGSGYPFTFGGGTKVEIKR",
    "numeric_result": 0.0342
  }
]
